Tested on: HepG2
assay-name: Antiproliferative activity against human HepG2 cells after 48 hrs by MTT assay
Format: functional, cell-based
condition: HepG2, 48 h
pIC50: −log10 of the molar value.
result-type: pIC50

The following molecules have reported results that may help.
# structure-notation, pIC50
data = [
    ("O=C(NCCc1c[nH]c2ccc(F)cc12)c1ccc(Cl)cc1O", "< 4.00"),
    ("Cc1ccc(C(=O)NCCc2c[nH]c3ccc(Br)cc23)c(O)c1", 4.10),
]

Attention now turns to another entry.
Summary for this molecule, `Cc1ccc(C(=O)NCCc2c[nH]c3ccc(Cl)cc23)c(O)c1` : pIC50 is < 4.00
